// reported TGI for each item listed
System: HCT-116 colon
assayRemarks: NCI tumour cell line growth inhibition, 48 h

O=C(Nc1ccc(F)cc1)c1cc2ccc(O)cc2oc1=Nc1cccc(F)c1: > 100 µM
COc1ccc(N=C2C(=Nc3ccc(OC)cc3)N(c3ccccc3[N+](=O)[O-])C(=S)N2c2ccc(OC)cc2)cc1: > 100 µM

Moving on to another molecule below.
In plain terms, O=CN/C=C/c1ccccc1O has a documented TGI of > 100 µM

====

Test system: LOX IMVI melanoma
assayRemarks: NCI tumour cell line growth inhibition, 48 h; in the data active = GI50 below about 0.43 µM; inactive = the rest
# valid calls are active, inactive; nothing else

Completed entries (count: 2):
O=C(CN/C=C\C(=O)c1cc(Cl)ccc1Cl)c1ccccc1: inactive
Cn1cc(C2=C(c3cccc(NCC(O)CO)c3)C(=O)NC2=O)c2cc(Cl)ccc21 (stereo not drawn): inactive

# ---- query compound ----
Answer briefly: the call reported for COc1ccc2c(c1)N(CCO)C1=C(C(=O)OC1)C2c1cccc(Br)c1 (stereo not drawn) in this assay.
active
